assay: Metabolic stability in mouse liver microsomes assessed as intrinsic clearance at 1 uM preincubated for 10 mins followed by NADPH addition and measured after 5 to 60 mins by LC-MS/MS analysis; format: ADME, Microsome; settings: time 15-70 min, read-out: CLH
MEASUREMENT KIND: microsomal CLint at 1 µM

Check out these entries, answers already filled in.
1. Cc1[nH]c(C(=O)Nc2ccc(-c3noc(=O)[nH]3)cc2N2CCN(C(=O)OC(C)(C)C)CC2)c(Cl)c1Cl = < 9.6 µL/min/mg
2. Cc1[nH]c(C(=O)Nc2ccc(-c3noc(=O)[nH]3)cc2N2CCN(c3ccccc3)CC2)c(Cl)c1Cl = < 9.6 µL/min/mg

Task: Given `Cc1[nH]c(C(=O)Nc2ccc(-n3nn[nH]c3=O)cc2N2Cc3ccccc3C2)c(Cl)c1Cl` , state its recorded microsomal CLint at 1 µM.
Result: < 9.6 µL/min/mg
